System: Yap1 mRNA
Experiment: Yap1 mRNA in SCC25 cells, RNA analysis (Example 25)
Format: cell-based, human
Settings: 0.2 μM, free uptake, 48 hours, RTS4814, normalized to actin-beta
recorded_metric: Yap1 mRNA, % UTC (% UTC)
Give the number; % UTC is assumed, so skip it.

*Q* Any idea what its Yap1 mRNA, % UTC is? The substance is 1198728 (TATTAGAGTATGTGGC; modified gapmer, further chemistry not given here) [compound 1198728]
*A* 31

*Q* Any idea what its Yap1 mRNA, % UTC is? The substance is 958499 (ATTAGAGTATGTGGCA; 3-10-3 cEt gapmer, further chemistry not given here) [compound 958499]
*A* 22

*Q* Any idea what its Yap1 mRNA, % UTC is? The substance is 1198623 (CTAAGTAAGGTTTCCC; modified gapmer, further chemistry not given here) [compound 1198623]
*A* 31

*Q* Any idea what its Yap1 mRNA, % UTC is? The substance is 1198831 (CACTTTTACATTAGGA; chemically modified gapmer, further chemistry not given here) [compound 1198831]
*A* 36

*Q* Any idea what its Yap1 mRNA, % UTC is? The substance is 1198605 (GTAATATTGCAATCTG; modified gapmer, further chemistry not given here) [compound 1198605]
*A* 23

*Q* Any idea what its Yap1 mRNA, % UTC is? The substance is 1076453 (GTAATATTGCAATCTG; 3-10-3 cEt gapmer, further chemistry not given here) [compound 1076453]
*A* 21

src = patent US11214803B2
